# Tested on: HCE-T;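 note: cell viability assay read-out, reporting inhibition of HCE-T cell growth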
# procedureText: cells
# Format: functional, cell-based, Homo sapiens
# conditions: Homo sapiens, HCE-T
# Description: SANGER: Inhibition of human HCE-T cell growth in a cell viability assay.
Some compounds, each annotated with its measured IC50.

Illustrative cases are given below, each with its answer.
INSERT INTO measurements (compound, result) VALUES
  ('COc1cc(N2CCN(C)CC2)ccc1Nc1ncc2c(n1)N(C)c1ccccc1C(=O)N2C', '> 8 µM'),
  ('COc1cc2ncn(-c3cc(OCc4ccccc4S(C)(=O)=O)c(C#N)s3)c2cc1OC [GSK-319347A]', '> 5 µM'),
  ('N[C@@H](CSC(c1ccccc1)(c1ccccc1)c1ccccc1)C(=O)O', '2.79 µM');

Ask: Entry under review: Nc1cccc2c1CN(C1CCC(=O)NC1=O)C2=O (stereo not drawn) [LENALIDOMIDE] . Reported IC50?
Reply: > 5 µM

Ask: Entry under review: OCCCNc1cc(-c2ccnc(Nc3cccc(Cl)c3)n2)ccn1 . Reported IC50?
Reply: 0.0473 µM

Ask: Entry under review: CCN(CC)CCCCNc1ncc2cc(-c3cc(OC)cc(OC)c3)c(NC(=O)NC(C)(C)C)nc2n1 . Reported IC50?
Reply: > 2 µM

Ask: Entry under review: Cn1cnc2c(F)c(Nc3ccc(Br)cc3Cl)c(C(=O)NOCCO)cc21 . Reported IC50?
Reply: 0.971 µM

Ask: Entry under review: CCC/C=C/C=C/C(=O)O[C@H]1/C(=C/C(=O)OC)C[C@H]2C[C@H]([C@@H](C)O)OC(=O)C[C@H](O)C[C@@H]3C[C@H](OC(C)=O)C(C)(C)[C@](O)(C[C@@H]4C/C(=C/C(=O)OC)C[C@H](/C=C/C(C)(C)[C@]1(O)O2)O4)O3 . Reported IC50?
Reply: > 0.008 µM

###

# System: CW-2;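 note: growth inhibition of CW-2 cells, read out by a cell viability assay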
# procedureText: cells
# Type: functional, cell-based, Homo sapiens
# conditions: Homo sapiens, CW-2
# Description: SANGER: Inhibition of human CW-2 cell growth in a cell viability assay.
valueKind: IC50

Illustrative cases are given below, each with its answer.
INSERT INTO results (moleculesmiles, valuekind, result) VALUES
  ('CC(C)c1ccccc1Cc1cc(C(=O)Nc2ccc(S(=O)(=O)c3ccccc3C(C)(C)C)cc2)c(O)c(O)c1O', 'IC50', '0.446 µM'),
  ('N[C@@H](CSC(c1ccccc1)(c1ccccc1)c1ccccc1)C(=O)O', 'IC50', '> 5.12 µM'),
  ('Nc1ccn([C@@H]2O[C@H](CO)[C@@H](O)C2(F)F)c(=O)n1', 'IC50', '> 1.02 µM');

Turning now to a further molecule:
Ask: Entry under review: N#Cc1c(O)c2c(-c3ccc(-c4ccccc4O)cc3)csc2[nH]c1=O . Reported IC50?
Reply: > 1.02 µM

###

Some molecules, each annotated with its measured IC50.
# Tested on: HT55;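 note: cell viability readout measuring growth inhibition of human HT55 cells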
# procedureText: cells
# Format: functional, cell-based, Homo sapiens
# conditions: Homo sapiens, HT55
# Description: SANGER: Inhibition of human HT55 cell growth in a cell viability assay.

Illustrative cases are given below, each with its answer.
INSERT INTO assay_data (moleculesmiles, valuekind, result) VALUES
  ('CO[C@H]1C[C@@H]2CC[C@@H](C)[C@@](O)(O2)C(=O)C(=O)N2CCCC[C@H]2C(=O)O[C@H]([C@H](C)C[C@@H]2CC[C@@H](OC(=O)C(C)(CO)CO)[C@H](OC)C2)CC(=O)[C@H](C)/C=C(\C)[C@@H](O)[C@@H](OC)C(=O)[C@H](C)C[C@H](C)/C=C/C=C/C=C/1C', 'IC50', '> 0.2 µM'),
  ('CCN(CC)CCCCNc1ncc2cc(-c3cc(OC)cc(OC)c3)c(NC(=O)NC(C)(C)C)nc2n1', 'IC50', '> 2 µM'),
  ('COc1cccc2c1C(=O)c1c(O)c3c(c(O)c1C2=O)C[C@@](O)(C(=O)CO)C[C@@H]3O[C@H]1C[C@H](N)[C@H](O)[C@H](C)O1', 'IC50', '> 1.02 µM');

Ask: Entry under review: CS(=O)(=O)c1ccc(C(=O)Nc2ccc(Cl)c(-c3ccccn3)c2)c(Cl)c1 . Reported IC50?
Reply: > 10 µM

Ask: Entry under review: CC(C)c1ccccc1Cc1cc(C(=O)Nc2ccc(S(=O)(=O)c3ccccc3C(C)(C)C)cc2)c(O)c(O)c1O . Reported IC50?
Reply: 0.651 µM

Ask: Entry under review: CN(C)C(=N)NC(=N)N . Reported IC50?
Reply: > 20000 µM
